System: MOLT-4 leukemia
assayRemarks: NCI tumour cell line growth inhibition, 48 h

# compound, GI50
data = [
    ("COC1CCC(OC)C(c2nc3sccn3c2/C=N/N=C(N)N)C1 (configuration not stated)", "> 74.6 µM"),
    ("CCN(CC)CC[n+]1ccc2c(C)c3[nH]c4ccccc4c3c(C)c2c1", "0.274 µM"),
    ("COc1cccc(C2C(C#N)=C(N)Oc3cc(OCCCCCC[P+](c4ccccc4)(c4ccccc4)c4ccccc4)ccc32)c1 (configuration not stated)", "1.22 µM"),
    ("Cc1c(-c2ccc(-c3ccccc3F)cc2)nc2ccc(F)cc2c1C(=O)O", "0.5 µM"),
    ("S=C(Nc1ccc(-c2nc3ccccc3s2)cc1)Nc1ccc(-c2nc3ccccc3s2)cc1", "10.2 µM"),
    ("COc1cc(N)c(Cl)cc1C(=O)N[C@@H]1CCN(CCCOc2ccc(F)cc2)C[C@@H]1OC", "29.8 µM"),
    ("COC(=O)c1c(C(=O)O)c(-c2ccccc2)c(-c2ccccc2)c(-c2ccccc2)c1-c1ccccc1", "> 100 µM"),
]

---

Test system: HOP-92 NSCLC
assayRemarks: NCI tumour cell line growth inhibition, 48 h; in the data active = GI50 below about 0.43 µM; inactive = the rest
Labels: y for active, n for inactive

# molecule, assignedCategory
rows = [
    ("COc1ccc(C(=O)Cn2c(C(=O)c3ccc(Cl)cc3)nc(-c3ccccc3)c2-c2ccccc2)cc1", "n"),
    ("C=C(CN1CCN(c2ccccn2)CC1)c1ccc(C(=O)Nc2ccccc2N)cc1", "n"),
    ("O=C(O)C(Cc1ccccc1)N1C(=O)/C(=C/C(Cl)=C/c2ccc([N+](=O)[O-])cc2)SC1=S (stereo not given)", "n"),
    ("Cc1cc(C)c(-c2c(O)c(Br)c(-c3c(C)cc(C)c(Br)c3C)c(O)c2Br)c(C)c1Br", "n"),
    ("CC(C)=CC(=O)OC1C2C(C)=CC(=O)C(O)C2(C)C2C3(O)OCC24C(CC(=O)OC14)C(C)C3O (stereo not given)", "y"),
    ("N.N.N.N.O=S([O-])[O-].[Co+3].[N-]=[N+]=[N-]", "n"),
    ("CN(C)CCN=c1nc2c(c(N)n1-c1ccccc1)c(=S)n(-c1ccccc1)c(=S)n2-c1ccccc1", "n"),
    ("CC(=O)c1nc(-c2ccc(C[C@@H](CNC(=O)CN(C)C)NC(=O)c3ccc(OC(C)C)c(Cl)c3)cc2)cn1C", "n"),
    ("COc1cc(C=NCC(=O)CSC(c2ccccc2)c2ccccc2)ccc1O", "n"),
    ("CCOC(=O)/C=C/c1ccc([N+](=O)[O-])o1", "n"),
    ("S=C(Nc1ccc(-c2nc3ccccc3s2)cc1)Nc1ccc(-c2nc3ccccc3s2)cc1", "n"),
    ("COc1ccc(N=c2nc3sc4cc(Cl)ccc4n3c(N)c2C#N)cc1", "n"),
    ("C/C(=N\\NC(=S)N1CCCC1)c1ccccn1", "y"),
    ("CCCCS(=O)(=O)c1cc(Nc2ccc(O)c3c2C(=O)c2ccccc2C3=O)ccc1C", "n"),
    ("COc1ccc(/C=C(\\C#N)c2cc(OC)c(OC)c(OC)c2)cc1", "y"),
]

---

Test system: SNB-19 CNS
assayRemarks: NCI tumour cell line growth inhibition, 48 h

# smilesString, measuredTarget, TGI
rows = [
    ("Fc1ccc(-c2ncn(C3CCNCC3)c2-c2ccnc(Oc3ccc(Cl)cc3)n2)cc1", "SNB-19 CNS", "> 18.7 µM"),
    ("C/C(CC(O)(C(F)(F)F)C(F)(F)F)=N\\O", "SNB-19 CNS", "> 10 µM"),
    ("O=C(CC1(O)CCCCC1)OC1CCCC1", "SNB-19 CNS", "> 100 µM"),
]
